From: the supplement of paper PMC12645437

# log2 fold change of degron read counts values compiled below
# study.system: T1, CRBN, Q96SW2;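 also: pooled lentiviral library of zinc finger degron-EGFP fusions in mCherry-positive Jurkat cells, FACS-sorted after compound exposure, with degron abundance counted by next-generation sequencing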
# T1 chain: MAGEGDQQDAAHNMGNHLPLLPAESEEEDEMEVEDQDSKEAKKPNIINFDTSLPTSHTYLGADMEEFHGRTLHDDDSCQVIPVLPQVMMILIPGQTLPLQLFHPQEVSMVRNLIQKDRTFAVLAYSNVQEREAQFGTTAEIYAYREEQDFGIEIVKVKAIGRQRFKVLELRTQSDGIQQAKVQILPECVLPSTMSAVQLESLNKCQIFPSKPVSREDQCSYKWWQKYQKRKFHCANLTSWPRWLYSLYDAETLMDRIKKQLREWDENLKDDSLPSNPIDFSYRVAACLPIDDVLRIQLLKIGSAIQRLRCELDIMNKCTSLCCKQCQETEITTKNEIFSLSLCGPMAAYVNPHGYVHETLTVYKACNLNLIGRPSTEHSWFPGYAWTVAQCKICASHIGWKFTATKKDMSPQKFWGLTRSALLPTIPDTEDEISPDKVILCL
# procedure.details: log2 fold change of degron read counts, EGFP-low vs EGFP+ sorted cells (limma voom), compound-induced degradation; higher = more compound-induced degradation of the degron-EGFP fusion; degrons are variants of IKZF1/3 zinc finger 2; compound dose not given here
# details: Jurkat; 18 h; compound: compound 22 (5-morpholino-thalidomide)
Over roughly 8,300 sequences, “log2 fold change of degron read counts, EGFP-low vs EGFP+ sorted cells (limma voom), compound-induced degradation” has its median near -1.1; the highest 2% begin near 3.2. The entries come from a sample that favours the highest values as a whole.
API note: the answer field is a bare number with no unit suffix.

Illustrative cases are given below, each with its answer.
Return reported log2 fold change of degron read counts; argument: FGCPICGATFTQKGNLLRHIKL [46F_47G_49P_50I_52G_53A_54T_55F_67L_, Q9UKT9]
2.4

Return reported log2 fold change of degron read counts; argument: FTCEVCGAEFTQKGNLLRHIKL [46F_47T_49E_50V_52G_53A_54E_55F_67L_, Q9UKT9]
1.19

New cases:
Return reported log2 fold change of degron read counts; argument: FICPVCGAYFTQKGNLLRHIKL [46F_47I_49P_50V_52G_53A_54Y_55F_67L_, Q9UKT9]
1.65

Return reported log2 fold change of degron read counts; argument: FICEICGRIFTQKGNLLRHIKL [46F_47I_49E_50I_52G_53R_54I_55F_67L_, Q9UKT9]
-1.63

Return reported log2 fold change of degron read counts; argument: FTCDVCGATFTQKGNLLRHIKL [46F_47T_49D_50V_52G_53A_54T_55F_67L_, Q9UKT9]
0.301

Return reported log2 fold change of degron read counts; argument: FSCPICGATFTQKGNLLRHIKL [46F_47S_49P_50I_52G_53A_54T_55F_67L_, Q9UKT9]
2.14
